// provenance: the supplement of paper PMC10567573

B1: SNAP91 (parent)
chain: FAAPSPATTASPAKVDSSGVIDLF

Variants of: B1
experimentDescription: protein stability index of a GFP-peptide fusion (GPS, HEK-293T) (PSI 1-6); higher = more stable;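 also: lentivirally expressed fusions sorted by FACS into six bins by GFP to DsRed ratio, PSI derived from sequencing read proportions per bin multiplied by bin number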
cond: c terminus: a fixed tail appended
Known protein stability index of a selection of variants
# respond with the number and nothing more

As a guide, the following entries are already answered.
>  <variantLabel>
A2H

>  <reportedProperty>
protein stability index

>  <numericReadout>
1.63

$$$$
>  <variantLabel>
L23M

>  <reportedProperty>
protein stability index

>  <numericReadout>
3.25

$$$$
>  <variantLabel>
A3W

>  <reportedProperty>
protein stability index

>  <numericReadout>
2.09

$$$$
>  <variantLabel>
L23W

>  <reportedProperty>
protein stability index

>  <numericReadout>
2.55

$$$$
>  <variantLabel>
L23V

>  <reportedProperty>
protein stability index

>  <numericReadout>
2.83

$$$$

Q. Item A2R has what recorded protein stability index?
A. 2.89

Q. # iterate: A7Q
A. 2.84

Q. Try this variant too: F24V
A. 3.99

Q. Try this variant next: I21V
A. 3.22

Q. // repeat for A7P and report
A. 2.62

Q. Then what about the variant V20P ?
A. 2.79

Q. Request: I21E
A. 3.96

Q. Ok, now A13E
A. 2.61

Q. What would you report for V15D ?
A. 2.68

Q. What about this variant? A2F
A. 2.44

Q. Same lookup for D22R , please.
A. 1.87

Q. Moving on to F1D
A. 4.3

Q. For I21Y then?
A. 2.11

Q. And then A13Y , what is it?
A. 1.83

Q. Please do the same for F1N as well.
A. 3.79

Q. Moving on to I21F
A. 2.25

Q. # iterate: A13P
A. 3.09

Q. Can you check F24T next?
A. 3.75

Q. Item: D22V
A. 1.75
